# Test system: human neutrophils
# assay_comment: Neutrophil oxidative burst, PMA-stimulated, lucigenin chemiluminescence
# Assay type: cell-based
# measurement_context: human neutrophils in vitro, PMA stimulus
parameter_measured: IC50 (µM)
# value in µM; strip the unit string

Which measured IC50 value corresponds to CN(C)CCOc1ccc(/C(=C(/CCCl)c2ccccc2)c2ccc(O)cc2)cc1 [4-OH-toremifene, reference compound] ? 1.7
